Recorded log10 Ki for compounds tested on UniProt P21917, drawn from a number of studies.
Sequence (P21917 whole entry): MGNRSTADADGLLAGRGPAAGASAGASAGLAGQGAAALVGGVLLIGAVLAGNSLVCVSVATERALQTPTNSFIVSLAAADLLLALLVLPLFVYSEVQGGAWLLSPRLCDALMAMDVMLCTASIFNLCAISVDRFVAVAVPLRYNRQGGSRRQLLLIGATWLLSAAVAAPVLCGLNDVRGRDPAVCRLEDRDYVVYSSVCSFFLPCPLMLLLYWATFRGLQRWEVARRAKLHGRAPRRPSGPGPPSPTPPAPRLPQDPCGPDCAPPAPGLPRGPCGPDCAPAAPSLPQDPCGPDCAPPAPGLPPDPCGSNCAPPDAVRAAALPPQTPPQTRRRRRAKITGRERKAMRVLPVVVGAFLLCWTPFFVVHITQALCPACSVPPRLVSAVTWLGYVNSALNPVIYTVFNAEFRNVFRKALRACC
QUANTITY MEASURED: log10 Ki (log10 of the value in nM)

INSERT INTO assay_data (sample_smiles, quantity_measured, reported_result) VALUES
  ('Clc1ccc(N2CCN(Cc3cnn(-c4ccccc4)c3)CC2)cc1', 'log10 Ki', 0.46),
  ('O=C(NC/C=C/CN1CCN(c2cccc(Cl)c2Cl)CC1)c1cc2ccccc2[nH]1', 'log10 Ki', 2.81),
  ('COc1cc(Br)cc(C(=O)NCCCCN2CCN(c3cccc(Cl)c3Cl)CC2)c1OC', 'log10 Ki', 2.90),
  ('COc1cc(CCNC[C@H](O)c2ccc(O)c(O)c2)ccc1OCCCc1ccccc1', 'log10 Ki', 2.15),
  ('Cc1ccc(CCCNCCCOc2ccccc2)cc1', 'log10 Ki', 0.67);
